meta.source: patent US20250084142A1

testSystem: T1, NPY5R
T1 sequence (Q15761 1-445, species assumed, looked up): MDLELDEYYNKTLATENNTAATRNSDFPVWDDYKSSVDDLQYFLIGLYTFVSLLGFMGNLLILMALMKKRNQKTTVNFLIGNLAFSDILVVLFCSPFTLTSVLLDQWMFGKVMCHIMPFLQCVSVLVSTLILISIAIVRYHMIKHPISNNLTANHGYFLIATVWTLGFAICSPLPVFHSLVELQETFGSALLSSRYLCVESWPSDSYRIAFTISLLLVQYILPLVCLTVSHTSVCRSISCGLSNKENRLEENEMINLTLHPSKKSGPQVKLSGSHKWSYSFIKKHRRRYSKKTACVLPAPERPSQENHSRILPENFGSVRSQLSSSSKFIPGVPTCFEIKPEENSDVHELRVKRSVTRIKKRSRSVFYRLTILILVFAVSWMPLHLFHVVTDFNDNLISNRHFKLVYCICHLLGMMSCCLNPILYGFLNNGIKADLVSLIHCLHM
assayExplanation: cell-based or functional assay
Starred links: 1 amine or outer side, 2 acyl side, 3 side chain; linkers in the order of their positions; H or OH if unused. Non-standard residues stand in square brackets, D forms with d. Groups on a side chain read outwards from the residue. No end group written: not given here. *: point of attachment. Phe(4-COOH) = N[C@@H](Cc1ccc(C(=O)O)cc1)C(=O)O; C20 diacid = O=C(O)CCCCCCCCCCCCCCCCCCC(=O)*; C18 diacid = O=C(O)CCCCCCCCCCCCCCCCC(=O)*; γGlu = O=C(O)[C@H](CCC(=O)[*:2])N[*:1]; hPhe = N[C@@H](CCc1ccccc1)C(=O)O
observedProperty: NPY5R pEC50

Solved entries:
PKPEAPGK([γGlu-γGlu-C18 diacid])DASPEEWDRYYKDLRHYLNWLTRQRF-NH2 [Compound A32] :: 9 -Log(EC50, M)
PKPEAPGK([γGlu-γGlu-C20 diacid])DASPEEWNRYYADLRHYLNWLTRQR[hPhe]-NH2 [Compound A61] :: 8.3 -Log(EC50, M)

Here is another binder to look at.
In one line, give reported NPY5R pEC50 of the entry PKPEAPGK([γGlu-γGlu-C20 diacid])DASPEEWNRYYADLRHYLNWLTRQR[Phe(4-COOH)]-NH2 [Compound A59] .
6 -Log(EC50, M)
